The values you see were collected from paper PMC4556614.

targetDesc: OCT2 (Homo sapiens)
Sequence (O15244 whole entry): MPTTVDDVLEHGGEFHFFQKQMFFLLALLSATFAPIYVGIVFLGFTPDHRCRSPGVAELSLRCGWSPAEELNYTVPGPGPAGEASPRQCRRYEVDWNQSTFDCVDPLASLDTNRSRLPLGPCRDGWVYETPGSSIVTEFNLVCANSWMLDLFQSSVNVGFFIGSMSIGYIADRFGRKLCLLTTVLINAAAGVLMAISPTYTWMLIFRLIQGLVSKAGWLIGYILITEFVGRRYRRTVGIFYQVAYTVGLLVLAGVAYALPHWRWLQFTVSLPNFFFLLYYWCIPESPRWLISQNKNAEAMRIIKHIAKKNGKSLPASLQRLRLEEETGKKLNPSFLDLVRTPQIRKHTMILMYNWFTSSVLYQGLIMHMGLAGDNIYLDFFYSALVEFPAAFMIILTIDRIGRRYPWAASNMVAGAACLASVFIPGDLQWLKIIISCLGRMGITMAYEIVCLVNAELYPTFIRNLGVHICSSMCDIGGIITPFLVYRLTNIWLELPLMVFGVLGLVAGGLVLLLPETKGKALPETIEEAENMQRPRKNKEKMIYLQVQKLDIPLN
method: Inhibition of OCT2-mediated [14C]metformin uptake in HEK-OCT2 cells
assayConditions: potent inhibitors; confirmed previous findings [19]-[21]
metricName: IC50 values, OCT2-mediated metformin transport (in words)

>>> val("Cc1c(OCC(F)(F)F)ccnc1C[S+]([O-])c1nc2ccccc2[nH]1 (centres unmarked) [Lansoprazole]")
"low micromolar range"
>>> val("CN[C@H]1CC[C@@H](c2ccc(Cl)c(Cl)c2)c2ccccc21 [Sertraline]")
"low micromolar range"
>>> val("COc1ccc2[nH]c([S+]([O-])Cc3ncc(C)c(OC)c3C)nc2c1 (centres unmarked) [Omeprazole]")
"low micromolar range"
>>> val("CN(C)CCC=C1c2ccccc2CCc2ccccc21 [Amitriptyline]")
"low micromolar range"
>>> val("N[C@@H](CC(=O)N1CCn2c(nnc2C(F)(F)F)C1)Cc1cc(F)c(F)cc1F [Sitagliptin]")
"low micromolar range"
